target: ERα protein (HiBiT-tagged) in ESR1_HiBiT KI MCF7 cells (Homo sapiens, UniProt P03372); assay: Nano Glo HiBiT Lytic Degradation Assay; format: cell-based; conditions: 6 hours with compound, 14-point dose response 1:3, bell-shape curve fit, half-maximal effect of first Hill model, read-out: MCF7 ESR1 HiBiT - (DC50)
Let's look at some compounds and their measured DC50.

Examples with their reported DC50 follow.
compound	study.target	DC50
O=C1CCN(c2ccc(N3CCC4(CCN(CC5CCN(c6ccc([C@@H]7c8ccc(O)cc8C(F)(F)C[C@@H]7c7ccccc7)cc6)CC5)C4)C3)cc2)C(=O)N1 (single isomer, unassigned)	ERα protein (HiBiT-tagged) in ESR1_HiBiT KI MCF7 cells (Homo sapiens, UniProt P03372)	≥ 10 µM
CC1(C)CC([C@H]2CCc3cc(O)ccc3[C@H]2c2ccc(N3CCC(CN4CCN(c5ccc6c(c5)CN([C@H]5CCC(=O)NC5=O)C6=O)CC4)CC3)cc2)CC(C)(C)C1	ERα protein (HiBiT-tagged) in ESR1_HiBiT KI MCF7 cells (Homo sapiens, UniProt P03372)	≥ 10 µM

As a next step, examine the compound that follows.
q: Please give the measured DC50 for this compound: O=C1CC[C@H](N2Cc3cc(N4CC5(CCN(CC6CCN(c7ccc([C@H]8c9ccc(O)cc9CC[C@H]8c8ccccc8)cc7)CC6)CC5)C4)ccc3C2=O)C(=O)N1 (single isomer, unassigned)
a: ≥ 10 µM

---

Molecular target: ERα protein (HiBiT-tagged) in ESR1_HiBiT KI MCF7 cells (Homo sapiens, UniProt P03372)
Sequence (P03372 1-595): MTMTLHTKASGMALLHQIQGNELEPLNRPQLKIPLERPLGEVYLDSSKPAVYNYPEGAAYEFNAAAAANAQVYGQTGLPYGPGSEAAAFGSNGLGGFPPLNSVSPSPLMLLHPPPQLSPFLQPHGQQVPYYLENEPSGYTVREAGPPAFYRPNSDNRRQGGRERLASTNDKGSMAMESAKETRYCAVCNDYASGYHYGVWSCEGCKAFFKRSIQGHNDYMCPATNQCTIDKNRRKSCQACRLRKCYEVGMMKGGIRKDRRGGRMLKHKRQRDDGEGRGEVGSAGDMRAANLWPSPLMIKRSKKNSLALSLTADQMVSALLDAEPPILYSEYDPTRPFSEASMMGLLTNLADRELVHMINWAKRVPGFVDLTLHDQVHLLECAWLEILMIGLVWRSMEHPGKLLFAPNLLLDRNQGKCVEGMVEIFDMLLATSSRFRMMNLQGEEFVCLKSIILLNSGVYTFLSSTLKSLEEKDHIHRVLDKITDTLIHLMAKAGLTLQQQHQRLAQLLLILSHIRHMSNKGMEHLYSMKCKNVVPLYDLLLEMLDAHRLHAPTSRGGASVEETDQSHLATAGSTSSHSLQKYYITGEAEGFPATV
Experiment: Nano Glo HiBiT Lytic Degradation Assay
Format: cell-based
Conditions: 6 hours with compound, 14-point dose response 1:3, bell-shape curve fit, half-maximal effect of first Hill model, read-out: MCF7 ESR1 HiBiT - (DC50)
Measured DC50 accompanies every entry in the list below.

Known DC50 results, listed for orientation:
compound	DC50
O=C1CC[C@H](N2Cc3cc(N4CCN(CC5CCN(c6ccc([C@@H]7c8ccc(Cl)cc8CC[C@@H]7c7ccccc7)cc6)CC5)CC4)ccc3C2=O)C(=O)N1	≥ 10 µM
NC(=O)C(CCC(=O)O)N1Cc2cc(N3CCN(CC4CCN(c5ccc([C@@H]6c7ccc(O)cc7CO[C@@H]6c6ccccc6)cc5)CC4)CC3)ccc2C1=O (stereo partly shown)	≥ 10 µM
O=C1CC[C@H](N2Cc3cc(N4CCN(CC5CCN(c6ccc([C@H]7c8ccc(O)cc8CC[C@H]7c7cccc8c7CCCC8)cc6)CC5)CC4)ccc3C2=O)C(=O)N1 (single isomer, unassigned)	≥ 10 µM

Next compound, please.
q: For the compound shown here, O=C1CCC(N2Cc3cc(N4CCN(CC5CCN(c6ccc([C@@H]7c8ccc(O)cc8CC[C@@H]7c7ccccc7)cc6)CC5)CC4)c(F)cc3C2=O)C(=O)N1 (single isomer, unassigned) [II-19] , give the reported DC50.
a: ≥ 10 µM

---

biological target: ERα protein (HiBiT-tagged) in ESR1_HiBiT KI MCF7 cells (Homo sapiens, UniProt P03372); experiment: Nano Glo HiBiT Lytic Degradation Assay; format: cell-based; details: 6 hours with compound, 14-point dose response 1:3, bell-shape curve fit, half-maximal effect of first Hill model, read-out: MCF7 ESR1 HiBiT - (DC50)
property.label: DC50

The cases that follow already have their DC50 on record.
molecule	study.target	property.label	observed.measurement
O=C1CCC(N2Cc3cc([C@@H]4CCN(CC5CCN(c6ccc([C@@H]7c8ccc(O)cc8CC[C@@H]7c7ccccc7)cc6)CC5)CC4(F)F)ccc3C2=O)C(=O)N1 (single isomer, unassigned)	ERα protein (HiBiT-tagged) in ESR1_HiBiT KI MCF7 cells (Homo sapiens, UniProt P03372)	DC50	20 nM
O=C1CC[C@H](N2Cc3cc(N4CCN(CC5CCN(c6ccc([C@H]7c8ccc(O)cc8CC[C@H]7c7ccc8c(c7)CCCC8)cc6)CC5)CC4)ccc3C2=O)C(=O)N1 (single isomer, unassigned)	ERα protein (HiBiT-tagged) in ESR1_HiBiT KI MCF7 cells (Homo sapiens, UniProt P03372)	DC50	1 nM
O=C1CC[C@H](N2Cc3cc(N4CCN(CC5CCN(c6cc(F)c([C@@H]7c8ccc(O)cc8CC[C@@H]7C7CCCCC7)c(F)c6)CC5)CC4)ccc3C2=O)C(=O)N1	ERα protein (HiBiT-tagged) in ESR1_HiBiT KI MCF7 cells (Homo sapiens, UniProt P03372)	DC50	6 nM
O=C1CC[C@H](N2Cc3cc(N4CCN(CC5CCN(c6ccc([C@@H]7c8ccc(O)cc8C(F)(F)C[C@@H]7c7ccc(C(F)(F)F)cc7)cc6)CC5)CC4)ccc3C2=O)C(=O)N1	ERα protein (HiBiT-tagged) in ESR1_HiBiT KI MCF7 cells (Homo sapiens, UniProt P03372)	DC50	0.92 nM
C[C@@H]1O[C@@H](c2ccccc2)[C@@H](c2ccc(N3CCC(CN4CCN(c5ccc6c(c5)CN([C@H]5CCC(=O)NC5=O)C6=O)CC4)CC3)cc2)c2ccc(O)cc21 (single isomer, unassigned)	ERα protein (HiBiT-tagged) in ESR1_HiBiT KI MCF7 cells (Homo sapiens, UniProt P03372)	DC50	3 nM

q: For the molecule shown here, "O=C1CC[C@H](N2Cc3cc(N4CCN(CC5CCN(c6ccc([C@@H]7c8ccc(O)cc8CC[C@@H]7CC7CCCC7)cc6)CC5)CC4)ccc3C2=O)C(=O)N1" , give the reported DC50.
a: 3 nM

q: What about "O=C1CC[C@H](N2Cc3cc(N4CCN(CC5CCN(c6ccc([C@H]7c8ccc(O)cc8CO[C@H]7c7cccc(OC(F)(F)F)c7)cc6)CC5)CC4)ccc3C2=O)C(=O)N1" ?
a: ≥ 10000 nM

---

Entries and their DC50
Molecular target: ERα protein (HiBiT-tagged) in ESR1_HiBiT KI MCF7 cells (Homo sapiens, UniProt P03372)
Sequence (P03372 1-595): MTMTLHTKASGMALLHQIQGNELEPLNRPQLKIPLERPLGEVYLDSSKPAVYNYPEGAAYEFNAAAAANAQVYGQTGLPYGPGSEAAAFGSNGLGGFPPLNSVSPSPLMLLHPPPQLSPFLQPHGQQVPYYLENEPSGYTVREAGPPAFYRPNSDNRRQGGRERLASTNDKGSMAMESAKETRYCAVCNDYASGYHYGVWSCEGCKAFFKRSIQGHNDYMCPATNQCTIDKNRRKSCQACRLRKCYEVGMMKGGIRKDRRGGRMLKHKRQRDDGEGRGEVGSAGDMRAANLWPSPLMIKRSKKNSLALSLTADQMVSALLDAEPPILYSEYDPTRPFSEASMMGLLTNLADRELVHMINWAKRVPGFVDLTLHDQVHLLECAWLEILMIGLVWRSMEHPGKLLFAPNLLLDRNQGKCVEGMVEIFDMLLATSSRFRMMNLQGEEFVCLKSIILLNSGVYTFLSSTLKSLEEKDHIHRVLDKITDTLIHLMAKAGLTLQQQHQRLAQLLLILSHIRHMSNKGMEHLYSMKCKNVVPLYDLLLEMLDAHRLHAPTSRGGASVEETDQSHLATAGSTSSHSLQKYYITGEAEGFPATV
Test: Nano Glo HiBiT Lytic Degradation Assay
Format: cell-based
Settings: 6 hours with compound, 14-point dose response 1:3, bell-shape curve fit, half-maximal effect of first Hill model, read-out: MCF7 ESR1 HiBiT - (DC50)

Solved entries (count: 2):
molecule	DC50
C[C@H]1CN(c2ccc3c(c2)CN([C@H]2CCC(=O)NC2=O)C3=O)CCN1CC1CCN(c2ccc([C@H]3c4ccc(O)cc4CC[C@H]3c3ccccc3)cc2)CC1 (single isomer, unassigned)	≥ 10 µM
O=C1CC[C@H](N2Cc3cc(N4C[C@H]5C[C@@H]4CN5CC4CCN(c5ccc([C@H]6c7ccc(O)cc7CC[C@H]6c6ccccc6)cc5)CC4)ccc3C2=O)C(=O)N1 (single isomer, unassigned)	≥ 10 µM

Attention now turns to another entry.
q: What measured DC50 goes with "O=C1CC[C@H](N2Cc3cc(N4CCN(CC5CCN(c6ccc([C@H]7c8ccc(O)cc8CC[C@H]7c7ccc(O)cc7)cc6)CC5)CC4)ccc3C2=O)C(=O)N1" ?
a: ≥ 10 µM
